# Protocol details: Toxicity (LD50; Litchfield and Wilcoxon)
# Conditions used: in vivo, po; Table IV; rats; p.o.; read-out: LD50 rats p.o.
Structures can show the parent of a compound that is named as a salt.

{"columns": ["Compound", "LD50, mg/kg"],
 "data": [
  ["CCCCc1c(C)nc2cccc(C)n2c1=O.Cl", 1100],
  ["CCCCc1c(C)nc2ccccn2c1=O [HCl]", 1100],
  ["CCc1c(C)nc2ccc(C)cn2c1=O [HCl]", 900]
]}

These data points were gathered from patent US4291036A.
